I'd appreciate it if you could supply inhibition values for the items below.
Molecular target: Monoglyceride lipase (Homo sapiens) (UniProt Q99685)
Sequence (whole entry): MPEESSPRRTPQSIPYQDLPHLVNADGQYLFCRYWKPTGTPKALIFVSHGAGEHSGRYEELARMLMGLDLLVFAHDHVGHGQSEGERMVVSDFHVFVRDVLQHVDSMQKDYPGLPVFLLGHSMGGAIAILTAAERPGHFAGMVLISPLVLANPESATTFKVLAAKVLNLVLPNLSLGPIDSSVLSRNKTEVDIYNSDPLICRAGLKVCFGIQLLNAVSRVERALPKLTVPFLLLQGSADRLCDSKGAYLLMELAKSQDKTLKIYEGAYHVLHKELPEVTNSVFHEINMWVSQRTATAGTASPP
Test: Inhibition of human MAGL expressed in HEK293 cells at 10 uM pre-incubated for 10 mins before 2-AG substrate addition by HPLC method
Assay type: cell-based
One number for each entry, in %.

Examples with their reported inhibition follow.
COc1nn(Cc2cccc(N)c2)c(=O)o1 = 21
COc1nn(Cc2ccc([N+](=O)[O-])cc2)c(=O)o1 = 36

# batch: return inhibition for each of the 3 molecules below
1. COc1nn(Cc2ccc(N)cc2)c(=O)o1
2. COC(=O)c1ccc(Cn2nc(OC)oc2=O)cc1
3. COc1nn(Cc2ccccc2[N+](=O)[O-])c(=O)o1

Response line:
1: 23; 2: 15; 3: 43

###

biological target: Monoacylglycerol lipase ABHD6 (Homo sapiens); assay: Inhibition of human ABHD6 expressed in HEK293 cells assessed as remaining enzyme activity by measuring reduction in glycerol production from 1-AG hydrolysis at 1 uM pre-incubated for 30 mins before 1-AG substrate addition and measured 90 mins post substrate addition by fluorescence method; format: cell-based
quantity-kind: Activity
// return the numeric value with its unit appended

COc1nn(Cc2cccc(Cl)c2)c(=O)o1 = 52%

Could I get Activity for every one of these entries?
1. COc1nn(Cc2cccc(Oc3ccccc3)c2)c(=O)o1
2. COc1nn(Cc2ccccc2Oc2ccccc2)c(=O)o1

Response line:
70%
60%

For each listed entry, give its Activity.
1. COc1cccc(Cn2nc(OC)oc2=O)c1
2. COc1nn(Cc2cccc(NC(=O)c3ccccc3)c2)c(=O)o1
3. COc1nn(Cc2cccc(C#N)c2)c(=O)o1

Response line:
1. 70%
2. 79%
3. 63%

###

molecular target: Fatty-acid amide hydrolase 1 (Homo sapiens); assay: Inhibition of human FAAH expressed in COS7 cell membranes at 10 uM pre-incubated for 10 mins before [3H]-AEA substrate addition by liquid scintillation counting; conditions: COS-7
The source made the active and inactive calls. The calls are words filed in the database; no cut-off is given here.
quantity-kind: inhibition

Would you please look over these solved cases?
COc1nn(Cc2cccc(C#N)c2)c(=O)o1 = inactive
COc1nn(Cc2ccc(NC(C)=O)cc2)c(=O)o1 = 37%
COc1nn(Cc2ccc([N+](=O)[O-])cc2)c(=O)o1 = 18%
COc1nn(Cc2ccccc2-c2ccccc2)c(=O)o1 = 23%
COc1nn(Cc2cccc(NC(C)=O)c2)c(=O)o1 = inactive
COc1nn(Cc2cccc(N)c2)c(=O)o1 = 18%
COc1nn(Cc2cccc(C(F)(F)F)c2)c(=O)o1 = 12%
COc1nn(Cc2ccccc2[N+](=O)[O-])c(=O)o1 = 36%
COc1nn(Cc2ccccc2)c(=O)o1 = inactive
COc1nn(Cc2cccc(NC(=O)c3ccccc3)c2)c(=O)o1 = inactive

Per the record, `COc1nn(Cc2cccc(Cl)c2)c(=O)o1` has inhibition of 37%

The reported numbers originate from ChEMBL document CHEMBL3612019.
